# target system: Cytochrome P450 3A4 (Homo sapiens) (UniProt P08684)
# Sequence (P08684 whole entry, looked up): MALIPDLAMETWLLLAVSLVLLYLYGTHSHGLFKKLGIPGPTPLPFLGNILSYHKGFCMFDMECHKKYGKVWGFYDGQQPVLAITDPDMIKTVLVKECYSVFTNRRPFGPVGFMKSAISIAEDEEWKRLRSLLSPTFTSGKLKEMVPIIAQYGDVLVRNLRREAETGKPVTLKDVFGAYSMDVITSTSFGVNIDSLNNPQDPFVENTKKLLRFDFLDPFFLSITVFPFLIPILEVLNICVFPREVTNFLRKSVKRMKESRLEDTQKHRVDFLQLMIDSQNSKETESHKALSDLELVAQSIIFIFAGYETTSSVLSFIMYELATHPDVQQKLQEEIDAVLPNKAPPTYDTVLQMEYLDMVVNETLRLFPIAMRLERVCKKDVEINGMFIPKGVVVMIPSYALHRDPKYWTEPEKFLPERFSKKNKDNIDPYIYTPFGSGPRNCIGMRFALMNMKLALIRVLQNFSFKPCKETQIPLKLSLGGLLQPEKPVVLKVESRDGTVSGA
# assay comment: qHTS Assay for Activators of Cytochrome P450 3A4 (AID 885); also: nearly all actives have a fitted effect of over 65% in size
# condition set: recombinant CYP3A4, Luciferin-PPXE luminescence, 60 min; series mostly up to 57.1 µM
Activity calls are given as the source filed them. Calls follow the shape of the dose curve; as a rule, active = well fitted activation curve with a large enough effect; inconclusive = small, poorly fitted or top-dose-only effect; inactive = no such curve, though single readings can be large or run the other way.
Respond only with the outcome that fits, drawn from y = active, n = inactive

What is the recorded call for this compound in the test? COc1ccccc1-c1cncnc1NCCc1cnc[nH]1
n

Do the same for COc1ccc(C(=O)N2CCC3(CC2)CN(C(=O)Nc2cccc(C#N)c2)C3)cc1 please
n

Do the same for CC(C)NC(=O)N1CC[C@@]2(CCCN(C(=O)c3cc(C(F)(F)F)cc(C(F)(F)F)c3)C2)C1 please
n

Do the same for O=c1c(-c2cccs2)nc2cnc(N3CCOCC3)nc2n1-c1ccccc1 please
n

Do the same for Cc1nc(N2CCOCC2)c2nc(-c3ccccc3)n(CCN3CCOCC3)c2n1 please
n

Continuing:
What is the recorded call for this compound in the test? CCNc1ncc2ncc(=O)n(Cc3cccs3)c2n1
n

Do the same for CCCn1c(-c2ccc(F)cc2)nc2c(NCCN(CC)CC)nc(C)nc21 please
n

Do the same for COc1ccc(CNc2ncnc3ccc(-c4cccc(NS(C)(=O)=O)c4)cc23)c(OC)c1 please
n

Do the same for CCCCNc1nc(C)nc2c1nc(-c1ccccc1)n2CCN1CCCC1 please
n

Do the same for COc1ccc(CNc2ncnc3ccc(-c4ccccc4CN(C)C)cc23)c(OC)c1 please
n

Do the same for COc1ccc(Oc2ncc3nc(C)c(=O)n(C[C@H]4CCCO4)c3n2)cc1 please
n
